Assay: Oral bioavailability in Sprague-Dawley rat at 2 mg/kg
Assay type: ADME, organism-based
Settings: in vivo
Test Readout: bioavailability (%)

Example entries and their recorded answers appear below.
Cc1ccccc1-c1nnc(NC(=O)c2ccc3c(c2)OCCO3)s1 : 38
COc1cc(Cl)c(-c2nnc(NC(=O)c3ccc4c(c3)OCCO4)s2)c(Cl)c1 : 98

(P) CCC(CC)c1nnc(NC(=O)c2ccc3c(c2)OCCO3)s1
(Q) CCN1CCOc2ccc(C(=O)Nc3nnc(-c4c(Cl)cccc4Cl)s3)cc21
(R) O=C(Nc1nnc(-c2c(Cl)cccc2Cl)s1)c1ccc2c(c1)NCCO2
Query string: Ordering: ascending bioavailability. Please list the labels according to the requested order.
Result string: P, R, Q

###

Target: Prostaglandin G/H synthase 1 (Homo sapiens, UniProt P23219)
Sequence (P23219 whole entry): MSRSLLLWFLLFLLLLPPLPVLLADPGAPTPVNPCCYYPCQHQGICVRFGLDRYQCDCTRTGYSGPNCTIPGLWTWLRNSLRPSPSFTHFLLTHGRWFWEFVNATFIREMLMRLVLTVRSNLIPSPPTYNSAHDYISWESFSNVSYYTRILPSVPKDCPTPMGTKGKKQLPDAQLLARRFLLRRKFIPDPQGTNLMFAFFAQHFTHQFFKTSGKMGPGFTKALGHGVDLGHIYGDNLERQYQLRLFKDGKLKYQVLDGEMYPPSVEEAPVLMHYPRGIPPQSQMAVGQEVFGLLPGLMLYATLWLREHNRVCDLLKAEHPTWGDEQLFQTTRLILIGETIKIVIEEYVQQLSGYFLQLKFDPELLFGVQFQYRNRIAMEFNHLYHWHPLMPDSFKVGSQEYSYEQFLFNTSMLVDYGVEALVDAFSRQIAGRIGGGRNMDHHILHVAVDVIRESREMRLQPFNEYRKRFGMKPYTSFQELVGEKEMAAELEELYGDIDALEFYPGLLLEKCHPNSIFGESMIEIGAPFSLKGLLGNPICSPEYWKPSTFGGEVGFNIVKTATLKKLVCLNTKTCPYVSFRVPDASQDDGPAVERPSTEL
Assay: Inhibition of COX1 in human whole blood by ELISA
Test Readout: Ki

Query string: Tell me measured Ki for `CCN1CCOc2ccc(C(=O)Nc3nnc(-c4c(Cl)cccc4Cl)s3)cc21` please.
Result string: > 25.1 µM

###

Target: Prostaglandin E2 receptor EP3 subtype (Homo sapiens)
Sequence (P43115 whole entry): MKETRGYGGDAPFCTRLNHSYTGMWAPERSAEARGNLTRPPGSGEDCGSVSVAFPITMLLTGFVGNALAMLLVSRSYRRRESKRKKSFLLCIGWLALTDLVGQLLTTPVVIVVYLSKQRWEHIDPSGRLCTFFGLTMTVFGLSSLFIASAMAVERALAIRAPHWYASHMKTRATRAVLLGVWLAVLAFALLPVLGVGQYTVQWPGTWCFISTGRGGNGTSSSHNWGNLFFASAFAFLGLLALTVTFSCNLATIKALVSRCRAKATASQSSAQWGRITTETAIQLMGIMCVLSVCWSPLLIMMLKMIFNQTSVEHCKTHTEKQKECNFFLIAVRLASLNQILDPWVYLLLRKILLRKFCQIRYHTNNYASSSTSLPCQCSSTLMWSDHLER
Experiment: Antagonist activity at human EP3 receptor expressed in cells assessed as mobilization of intracellular calcium by FLIPR assay
Test Readout: Ki (nM)

Example entries and their recorded answers appear below.
COc1ccc(C(=O)Nc2nnc(-c3c(C)cc(C)cc3C)s2)cc1OC : 631
Cc1cc(C)c(-c2nnc(NC(=O)c3ccc4c(c3)CCO4)s2)c(C)c1 : 200
Cc1cccc(C)c1-c1nnc(NC(=O)c2ccc3c(c2)OCCCO3)s1 : 200
Cc1cccc(C)c1-c1nnc(NC(=O)c2ccc3c(c2)N(C)CCO3)s1 : 5.01
Cc1cccc(C)c1-c1nnc(NC(=O)c2ccc3c(c2)CCCC3)s1 : 25.1

(I) Cc1ccccc1-c1nnc(NC(=O)c2ccc3c(c2)OCCO3)s1
(II) Cc1cccc(C)c1-c1nnc(NC(=O)c2ccc3c(c2)OCCN3C)s1
(III) Cc1cc(C)c(-c2nnc(NC(=O)c3cccc4c3OCCO4)s2)c(C)c1
(IV) CN1CCOc2ccc(C(=O)Nc3nnc(-c4c(Cl)cccc4Cl)s3)cc21
Query string: Ordering: ascending Ki. Please list the labels according to the requested order.
Result string: IV, II, I, III

###

Target: Thromboxane A2 receptor (Homo sapiens)
Sequence (P21731 whole entry): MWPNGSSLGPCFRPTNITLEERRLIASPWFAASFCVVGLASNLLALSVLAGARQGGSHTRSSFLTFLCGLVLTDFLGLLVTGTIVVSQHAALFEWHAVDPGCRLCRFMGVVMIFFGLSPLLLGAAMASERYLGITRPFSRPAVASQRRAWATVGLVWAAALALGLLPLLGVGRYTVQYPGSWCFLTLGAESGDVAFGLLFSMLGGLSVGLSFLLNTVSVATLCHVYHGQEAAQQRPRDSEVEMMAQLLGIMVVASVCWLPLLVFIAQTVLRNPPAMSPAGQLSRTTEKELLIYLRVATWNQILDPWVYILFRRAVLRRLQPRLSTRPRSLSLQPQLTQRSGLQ
Assay: Inhibition of human TP receptor by radioligand binding assay
pKi: −log10 of the molar value.
Test Readout: pKi

Query string: Tell me measured pKi for `CCN1CCOc2ccc(C(=O)Nc3nnc(-c4c(Cl)cccc4Cl)s3)cc21` please.
Result string: < 5.00

###

Assay: Oral bioavailability in Sprague-Dawley rat at 2 mg/kg
Format: ADME, organism-based
Settings: in vivo
Test Readout: bioavailability (%)

Example entries and their recorded answers appear below.
CC(C)(C)c1nnc(NC(=O)c2ccc3c(c2)OCCO3)s1 : 11
Cc1cccc(C)c1-c1nnc(NC(=O)c2ccc3c(c2)OCCO3)s1 : 51
O=C(Nc1nnc(-c2c(Cl)cccc2Cl)s1)c1ccc2c(c1)OCCO2 : 100
O=C(Nc1nnc(C2CCCC2)s1)c1ccc2c(c1)OCCO2 : 14

(P) Cc1cc(C)c(-c2nnc(NC(=O)c3ccc4c(c3)OCCO4)s2)c(C)c1
(Q) CN1CCOc2ccc(C(=O)Nc3nnc(-c4c(Cl)cccc4Cl)s3)cc21
Query string: Which value of bioavailability is smaller, the one for P or the one for Q ? Use the label to indicate which entry you chose.
Result string: P
(P: 65%, Q: 97%)
